Assay: Compound 2 concentrations in plasma by LC-MS/MS
Format: in vivo, SCID mice
Conditions: female, SCID, mouse, plasma, oral, 10 mg/kg, Plasma Compound 2 Concentration (μM) Mean ± SEM, 10 mg/kg single oral dose, 24 h
Property Label: concentration at 24 h (µM)

INSERT INTO assay_data (compound, property_label, measured_result) VALUES
  ('CCN1C(=O)CNc2ncc(-c3ccc(-c4nc[nH]n4)nc3C)nc21 [Compound 2]', 'concentration at 24 h', 0.8);

----------
Test: Compound 2 concentrations in plasma by LC-MS/MS
Format: in vivo, SCID mice
Conditions: female, SCID, mouse, plasma, oral, 0.3 mg/kg, Plasma Compound 2 Concentration (μM) Mean ± SEM, 0.3 mg/kg single oral dose, 0.5 h
Property Label: concentration at 0.5 h (µM)

INSERT INTO measurements (compound, property_label, measured_result) VALUES
  ('CCN1C(=O)CNc2ncc(-c3ccc(-c4nc[nH]n4)nc3C)nc21 [Compound 2]', 'concentration at 0.5 h', 0.16);

----------
Biological target: mTOR (Homo sapiens, UniProt P42345)
pIC50: −log10 of the molar value.
Property Label: pIC50

INSERT INTO assay_data (compound, experimental_system, property_label, measured_result) VALUES
  ('O=c1[nH]c2ncc(-c3ccc(-c4nc[nH]n4)cc3)nc2n1CCC1CCOCC1 [Compound 3]', 'mTOR (Homo sapiens, UniProt P42345)', 'pIC50', 8.70);

----------
Assay: Compound 2 concentrations in plasma by LC-MS/MS
Format: in vivo, SCID mice
Conditions: female, SCID, mouse, plasma, oral, 2 mg/kg, 2 mg/kg QD, 24 h after last dose; read-out: Plasma Concentration (μM) Mean ± SEM
Property Label: concentration at 24 h

INSERT INTO results (compound, property_label, measured_result) VALUES
  ('CCN1C(=O)CNc2ncc(-c3ccc(-c4nc[nH]n4)nc3C)nc21 [Compound 2]', 'concentration at 24 h', '0.02 µM');

----------
Experiment: Compound 2 concentrations in plasma by LC-MS/MS
Type: in vivo, SCID mice
Details: female, SCID, mouse, plasma, oral, 1 mg/kg, Plasma Compound 2 Concentration (μM) Mean ± SEM, 1 mg/kg single oral dose, 6 h
Property Label: concentration at 6 h (µM)

INSERT INTO results (chemical_smiles, unit_of_measure, measured_result) VALUES
  ('CCN1C(=O)CNc2ncc(-c3ccc(-c4nc[nH]n4)nc3C)nc21', 'µM', 0.13);

----------
System: AKT (T308)
Experiment: Phospho-AKT (T308) in PC-3 cell lysates, MSD (Compound 2)
Type: cell-based
Conditions: Homo sapiens; PC-3, 1 hour; read-out: PDK1 AKT (T308) IC50
pIC50: −log10 of the molar value.
Property Label: pIC50

INSERT INTO measurements (chemical_smiles, experimental_system, measured_result) VALUES
  ('CCN1C(=O)CNc2ncc(-c3ccc(-c4nc[nH]n4)nc3C)nc21', 'AKT (T308)', 7.32);

----------
Tested on: PC3 cells
Experiment: WST-1 cell proliferation assay (Compound 1, rapamycin)
Assay type: cell-based, human
Conditions: read-out: Compound 1 Growth Inhibition IC50; PC3, 3 days
pIC50: −log10 of the molar value.
Property Label: pIC50

INSERT INTO assay_data (chemical_smiles, measured_result) VALUES
  ('CO[C@H]1CC[C@H](N2C(=O)CNc3ncc(-c4ccc(C(C)(C)O)nc4)nc32)CC1', 6.96);

----------
Test: Compound 2 concentrations in plasma by LC-MS/MS
Type: in vivo, SCID mice
Details: female, SCID, mouse, plasma, oral, 2 mg/kg, 2 mg/kg QD, 3 h after last dose; read-out: Plasma Concentration (μM) Mean ± SEM
Property Label: concentration at 3 h (µM)

INSERT INTO measurements (chemical_smiles, unit_of_measure, measured_result) VALUES
  ('CCN1C(=O)CNc2ncc(-c3ccc(-c4nc[nH]n4)nc3C)nc21', 'µM', 0.59);

----------
Assay: Compound 2 concentrations in plasma by LC-MS/MS
Assay type: in vivo, SCID mice
Conditions: female, SCID, mouse, plasma, oral, 0.1 mg/kg, Plasma Compound 2 Concentration (μM) Mean ± SEM, 0.1 mg/kg single oral dose, 3 h
Property Label: concentration at 3 h (µM)

INSERT INTO assay_data (compound, measured_result) VALUES
  ('CCN1C(=O)CNc2ncc(-c3ccc(-c4nc[nH]n4)nc3C)nc21 [Compound 2]', 0.02);

----------
Assay: Compound 2 concentrations in plasma by LC-MS/MS
Type: in vivo, SCID mice
Conditions: female, SCID, mouse, plasma, po, 5 mg/kg, 5 mg/kg QD, last day; read-out: total plasma AUC0-24 h
Property Label: AUC(0-t) (µM·h)

INSERT INTO results (molecule, property_label, measured_result) VALUES
  ('CCN1C(=O)CNc2ncc(-c3ccc(-c4nc[nH]n4)nc3C)nc21 [Compound 2]', 'AUC(0-t)', 17);

----------
Experiment: Compound 2 concentrations in plasma by LC-MS/MS
Format: in vivo, SCID mice
Conditions: female, SCID, mouse, plasma, oral, 10 mg/kg, Plasma Compound 2 Concentration (μM) Mean ± SEM, 10 mg/kg single oral dose, 1 h
Property Label: concentration at 1 h (µM)

INSERT INTO measurements (chemical_smiles, measured_result) VALUES
  ('CCN1C(=O)CNc2ncc(-c3ccc(-c4nc[nH]n4)nc3C)nc21', 6.78);

----------
Assay: Compound 2 concentrations in plasma by LC-MS/MS
Type: in vivo, SCID mice
Details: female, SCID, mouse, plasma, oral, 0.3 mg/kg, Plasma Compound 2 Concentration (μM) Mean ± SEM, 0.3 mg/kg single oral dose, 1 h
Property Label: concentration at 1 h (µM)

INSERT INTO assay_data (compound, measured_result) VALUES
  ('CCN1C(=O)CNc2ncc(-c3ccc(-c4nc[nH]n4)nc3C)nc21 [Compound 2]', 0.16);

----------
Assay: Compound 2 concentrations in plasma by LC-MS/MS
Format: in vivo, SCID mice
Settings: female, SCID, mouse, plasma, oral, 0.1 mg/kg, Plasma Compound 2 Concentration (μM) Mean ± SEM, 0.1 mg/kg single oral dose, 6 h
Property Label: concentration at 6 h (µM)

INSERT INTO assay_data (chemical_smiles, property_label, measured_result) VALUES
  ('CCN1C(=O)CNc2ncc(-c3ccc(-c4nc[nH]n4)nc3C)nc21', 'concentration at 6 h', 0.02);

----------
Tested on: PRAS40 (T246)
Experiment: Phospho-PRAS40 (T246) in PC-3 cell lysates, MSD (Compound 2)
Format: cell-based
Details: Homo sapiens; PC-3, 1 hour; read-out: mTORC2 PRAS40 (T246) IC50
pIC50: −log10 of the molar value.
Property Label: pIC50

INSERT INTO measurements (compound, measured_result) VALUES
  ('CCN1C(=O)CNc2ncc(-c3ccc(-c4nc[nH]n4)nc3C)nc21 [Compound 2]', 7.31);

----------
Experiment: Compound 2 concentrations in plasma by LC-MS/MS
Format: in vivo, SCID mice
Settings: female, SCID, mouse, plasma, oral, 1 mg/kg, 1 mg/kg BID, 3 h after last dose; read-out: Plasma Concentration (μM) Mean ± SEM
Property Label: concentration at 3 h

INSERT INTO assay_data (chemical_smiles, measured_result) VALUES
  ('CCN1C(=O)CNc2ncc(-c3ccc(-c4nc[nH]n4)nc3C)nc21', '0.48 µM');

----------
Assay: Compound 2 concentrations in plasma by LC-MS/MS
Type: in vivo, SCID mice
Details: female, SCID, mouse, plasma, oral, 0.1 mg/kg, Plasma Compound 2 Concentration (μM) Mean ± SEM, 0.1 mg/kg single oral dose, 10 h
Property Label: concentration at 10 h (µM)

INSERT INTO results (chemical_smiles, measured_result) VALUES
  ('CCN1C(=O)CNc2ncc(-c3ccc(-c4nc[nH]n4)nc3C)nc21', 0.01);

----------
Experiment: Compound 2 concentrations in plasma by LC-MS/MS
Assay type: in vivo, SCID mice
Settings: female, SCID, mouse, plasma, po, 1 mg/kg, 1 mg/kg QD, last day; read-out: total plasma AUC0-24 h
Property Label: AUC(0-t) (µM·h)

INSERT INTO assay_data (chemical_smiles, unit_of_measure, measured_result) VALUES
  ('CCN1C(=O)CNc2ncc(-c3ccc(-c4nc[nH]n4)nc3C)nc21', 'µM·h', 2.33);

----------
Test: Compound 2 concentrations in plasma by LC-MS/MS
Type: in vivo, SCID mice
Details: female, SCID, mouse, plasma, oral, 10 mg/kg, Plasma Compound 2 Concentration (μM) Mean ± SEM, 10 mg/kg single oral dose, 6 h
Property Label: concentration at 6 h (µM)

INSERT INTO assay_data (chemical_smiles, measured_result) VALUES
  ('CCN1C(=O)CNc2ncc(-c3ccc(-c4nc[nH]n4)nc3C)nc21', 2.1);

Source: patent US20140113904A1
